meta.source: PubChem BioAssay AID1159580

Entries and their normalized growth
Protocol notes: chemical genetic growth profiling, strain panel (AID 1159580);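 also: tested at 20 µM; growth read once vehicle control cultures reached saturation at 30 °C; 1 = growth at the plate median or of vehicle wells; lower values mean less growth of the strain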
Test context: S. cerevisiae strains, growth OD, strain wild type, stronger effect = lower value
In all, about 5,500 compounds went through this assay and about 2,000 (36%) were called active. About 18% were inconclusive and are not listed. This is one part of the list.

[
  {
    "Compound": "CC(N)C(=O)OC(C)(C)Cc1ccc(Cl)cc1 (stereo unspecified)",
    "normalized growth": 0.982
  },
  {
    "Compound": "O=C1c2cccc3c([N+](=O)[O-])ccc(c23)C(=O)N1Cc1ccco1",
    "normalized growth": 0.935
  },
  {
    "Compound": "CCOC(=O)C(C)(C)Oc1ccc(Cl)cc1",
    "normalized growth": 1
  },
  {
    "Compound": "O=C1c2cccc3cc([N+](=O)[O-])cc(c23)C(=O)N1CCO",
    "normalized growth": 1.01
  },
  {
    "Compound": "CCOC(=O)C(=CNc1cccc(C#N)c1)C(=O)OCC",
    "normalized growth": 0.994
  },
  {
    "Compound": "CCOC(=O)C(=CNNC(=O)c1ccccc1-n1cccc1)C(=O)OCC",
    "normalized growth": 0.935
  }
]
